- assayed target: Replicase polyprotein 1ab (Severe acute respiratory syndrome coronavirus 2, UniProt P0DTD1)
pIC50: −log10 of the molar value.
Readings of pIC50 for the listed molecules

## Input # get_value(readout='pIC50', item= "C[C@@H](NC(=O)[C@H](N)Cc1c[nH]c2ccccc12)c1cccc2ccccc12" )
## Output < 4.00

## Input # get_value(readout='pIC50', item= "C[C@@H](NS(=O)(=O)c1ccc(N)cc1)c1cccc2ccccc12" )
## Output < 4.00

## Input # get_value(readout='pIC50', item= "COc1ccc([C@@H](C)NC(=O)c2cc(N)ccc2C)c2ccccc12" )
## Output < 4.00

---

Readings of pIC50 for the listed compounds
- Tested on: SARS-CoV-2
- test summary: Antiviral activity against SARS-CoV-2 infected Chlorocebus sabaeus Vero E6 cells assessed as inhibition of viral replication
- Type: functional
- run parameters: Severe acute respiratory syndrome coronavirus 2, Vero C1008; read-out: ID50 (the source's name)
For clarity, pIC50 is expressed as the negative log10 of concentration in mol/L.

- C[C@@H](NC(=O)[C@@H](Cc1c[nH]c2ccccc12)NC(=O)OC(C)(C)C)c1cccc2ccccc12: 4.44

## Input # value lookup — system SARS-CoV-2, readout pIC50, item "C[C@@H](NS(=O)(=O)c1cccc(N)c1)c1cccc2ccccc12"
## Output 4.19

## Input # value lookup — system SARS-CoV-2, readout pIC50, item "Cc1ccc(N)cc1C(=O)N[C@H](C)c1cccc2ccccc12"
## Output 4.42

## Input # value lookup — system SARS-CoV-2, readout pIC50, item "CNCc1ccc(C)c(C(=O)N[C@H](C)c2cccc3ccccc23)c1"
## Output 4.70

## Input # value lookup — system SARS-CoV-2, readout pIC50, item "C[C@@H](NS(=O)(=O)c1ccc([N+](=O)[O-])cc1)c1cccc2ccccc12"
## Output 4.25

## Input # value lookup — system SARS-CoV-2, readout pIC50, item "C[C@@H](NC(=O)[C@H](N)Cc1ccccc1)c1cccc2ccccc12"
## Output 4.12

## Input # value lookup — system SARS-CoV-2, readout pIC50, item "C[C@@H](NS(=O)(=O)c1cccc([N+](=O)[O-])c1)c1cccc2ccccc12"
## Output 4.42
